Entries and their pIC50 values follow.
biological target: Plasma kallikrein (Homo sapiens); test: In Vitro Enzyme Inhibition of hPK: A 10 mM solution of the test compound was made in DMSO. […] A control tube containing only DMSO is included. […] 50 μL was removed from this mixture and placed into duplicate wells on a Microfluor 1Black U-bottom microtiter plate (Thermo Scientific). This plate was incubated for 5 minutes at 37° C. To each well, 50 μL of pre-warmed 2×PFR-AMC was added to start the enzymatic reaction. Cleavage of PFR-AMC was monitored in a Biotek Synergy H4 reader set at 37° C. Readings are taken every 43 seconds for 1 hour. […] The IC50 is calculated using the Gen5 (Biotek Instruments).
Sequence (P03952 20-390 limits assumed): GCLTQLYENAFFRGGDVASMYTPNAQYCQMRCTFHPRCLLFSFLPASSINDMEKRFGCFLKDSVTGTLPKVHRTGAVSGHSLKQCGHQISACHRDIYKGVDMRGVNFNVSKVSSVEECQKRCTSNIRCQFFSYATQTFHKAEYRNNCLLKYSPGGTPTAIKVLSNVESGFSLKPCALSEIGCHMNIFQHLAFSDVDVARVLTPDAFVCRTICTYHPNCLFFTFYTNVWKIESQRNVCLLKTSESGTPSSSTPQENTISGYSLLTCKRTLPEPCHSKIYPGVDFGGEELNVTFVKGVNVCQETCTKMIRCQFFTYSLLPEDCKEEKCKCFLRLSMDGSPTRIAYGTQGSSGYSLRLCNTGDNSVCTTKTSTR
Sequence (P03952 391-638 limits assumed): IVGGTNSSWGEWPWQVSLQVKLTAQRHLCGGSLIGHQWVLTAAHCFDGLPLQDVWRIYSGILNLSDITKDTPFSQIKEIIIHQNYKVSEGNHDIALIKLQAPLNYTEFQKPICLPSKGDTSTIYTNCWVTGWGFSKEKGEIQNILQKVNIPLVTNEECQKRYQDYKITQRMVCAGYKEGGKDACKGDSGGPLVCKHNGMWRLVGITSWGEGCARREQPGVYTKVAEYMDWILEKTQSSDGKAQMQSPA
pIC50: −log10 of the molar value.

Sample records with pIC50:
{"Smiles input": "Cc1nc(N)ccc1CNC(=O)c1ccnc(Cc2ccc3ncc(C4CC4)cc3c2)c1", "pIC50": "> 7.00"}
{"Smiles input": "Nc1nccc2cc(CNC(=O)c3ccnc(Cc4ccc5ncc(N6CCCC6)cc5c4)c3)ccc12", "pIC50": "> 7.00"}
{"Smiles input": "Cc1nc2c(cc1CNC(=O)c1ccnc(Cc3ccc4ncc(Cl)cc4c3)c1)CNC2", "pIC50": "< 5.00"}
{"Smiles input": "Cc1cc(N)nc(C)c1CNC(=O)c1ccnc(Cc2ccc3ncc(CC(F)F)cc3c2)c1", "pIC50": "> 7.00"}

Next compound, please.
## Task So what's the measured pIC50 for this one? Cc1cc(N)nc(C)c1CNC(=O)c1ccnc(Cc2cccc(-c3noc(=O)[nH]3)c2)c1
## Result < 5.00
